STUDY_TARGET: hDAT (Homo sapiens, UniProt Q01959)
Sequence (Q01959 whole entry): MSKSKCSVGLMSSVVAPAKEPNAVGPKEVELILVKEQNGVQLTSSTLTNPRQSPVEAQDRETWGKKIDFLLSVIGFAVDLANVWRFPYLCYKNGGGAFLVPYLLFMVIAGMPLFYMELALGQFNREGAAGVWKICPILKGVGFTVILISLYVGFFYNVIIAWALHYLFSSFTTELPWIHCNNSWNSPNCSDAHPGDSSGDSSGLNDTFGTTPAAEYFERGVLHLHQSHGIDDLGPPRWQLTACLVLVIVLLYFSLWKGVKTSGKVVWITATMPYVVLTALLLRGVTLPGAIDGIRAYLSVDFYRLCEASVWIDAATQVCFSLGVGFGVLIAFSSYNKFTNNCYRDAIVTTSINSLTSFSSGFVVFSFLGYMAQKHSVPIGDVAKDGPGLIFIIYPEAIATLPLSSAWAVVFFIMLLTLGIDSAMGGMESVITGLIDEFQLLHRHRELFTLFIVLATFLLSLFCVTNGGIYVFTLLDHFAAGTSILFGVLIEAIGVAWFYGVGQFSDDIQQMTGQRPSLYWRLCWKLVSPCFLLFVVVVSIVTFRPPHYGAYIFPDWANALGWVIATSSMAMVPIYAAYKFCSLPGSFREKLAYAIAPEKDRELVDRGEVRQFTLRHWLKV
PROCEDURE_DETAILS: Radioligand binding at DAT
ASSAY_SETUP: 10 μM; [3H]WIN35428; negative = enhanced radioligand binding
QUANTITY: DAT, inhibition, % of control at 10 μM

Consider the worked cases shown below.
Measured DAT, inhibition, % of control at 10 μM (hDAT (Homo sapiens, UniProt Q01959)), entry "CNC(=O)[C@@]12C[C@@H]1[C@@H](n1cnc3c(NC)nc(C#Cc4ccccc4)nc31)[C@H](O)[C@@H]2O" : –211%

Fill in: hDAT (Homo sapiens, UniProt Q01959) DAT, inhibition, % of control at 10 μM for "O[C@@H]1[C@H](O)[C@@H]2C[C@@H]2[C@H]1n1cnc2c(NCc3cccc(Cl)c3)nc(C#Cc3ccc(F)c(F)c3)nc21" = 16%

For "CNC(=O)[C@@]12C[C@@H]1[C@@H](n1cnc3c(NC)nc(C#Cc4ccc(F)c(F)c4)nc31)[C@H](O)[C@@H]2O" on hDAT (Homo sapiens, UniProt Q01959), measured DAT, inhibition, % of control at 10 μM was –322%

Known value: hDAT (Homo sapiens, UniProt Q01959) DAT, inhibition, % of control at 10 μM of the compound "CCOC(=O)[C@@]12C[C@@H]1[C@@H](n1cnc3c(NC)nc(C#Cc4ccc(Br)s4)nc31)[C@H](O)[C@@H]2O" equals –430%

For "CNc1nc(C#Cc2ccc(Cl)s2)nc2c1ncn2[C@H]1[C@H](O)[C@H](O)[C@]2(C(=O)OC(C)C)C[C@H]12" on hDAT (Homo sapiens, UniProt Q01959), measured DAT, inhibition, % of control at 10 μM was <20%

New cases:
Known value: hDAT (Homo sapiens, UniProt Q01959) DAT, inhibition, % of control at 10 μM of the compound "CNC(=O)[C@@]12C[C@@H]1[C@@H](n1cnc3c(NCc4cccc(Cl)c4)nc(C#Cc4ccc(F)cc4)nc31)[C@H](O)[C@@H]2O" equals 21%
